# System: HT-29
# assay summary: NCI tumour cell line growth inhibition, 48 h
The source made the active and inactive calls. Cut-off read from the data, not from the text of the source: active = GI50 up to about 1.1 µM and inactive = higher.
Entry note: the call must match one of active, inactive

Illustrative cases are given below, each with its answer.
CCO/C([O-])=C(\C(=O)c1ccccc1)[n+]1c(C)n(C)c2ccccc21 ... inactive
CCCC[P+](CCCC)(CCCC)C(C(=O)OC)C(C(=O)OC)=C1SC(C(=O)OC)=C(C(=O)OC)S1 (stereo not given) ... inactive
O=[N+]([O-])c1cccc2nc3ccccc3c(NCCCn3ccnc3[N+](=O)[O-])c12 ... active
COc1ccc(OC)c(/N=C/c2cc(OC)c(OC)c(OC)c2)c1 ... inactive

Query: Per the assay record, what outcome was assigned to CCOC(=O)NC(Nc1ccc(Cl)cn1)(C(F)(F)F)C(F)(F)F ?
Result: inactive
